TARGET DESC: human TLR7 (Homo sapiens)
METHOD DESCRIPTION: TLR7 inhibition reporter assay (HEK-Blue cells, SEAP reporter, gardiquimod stimulation)
TEST CONDITIONS: HEK-Blue cells overexpressing human TLR7, SEAP reporter, gardiquimod 7.5 μM
pIC50: −log10 of the molar value.
EXPERIMENTAL READOUT: pIC50

In the examples that follow, each entry is paired with its recorded pIC50.
[
  {
    "SMILES REPR": "Cc1cn2cc(-c3[nH]c4ccc(C5CCN(C(=O)CN(C)C)CC5)cc4c3C(C)C)ccc2n1",
    "pIC50": "> 7.00"
  },
  {
    "SMILES REPR": "Cc1c(-c2[nH]c3ccc(C4CCN(C(=O)CN(C)C)CC4)cc3c2C(C)C)cn2nnnc2c1C",
    "pIC50": "> 7.00"
  },
  {
    "SMILES REPR": "CC(C)c1c(-c2ccnc3[nH]ccc23)[nH]c2ccc(C3CCN(C(=O)CN(C)C)CC3)cc12",
    "pIC50": "> 7.00"
  },
  {
    "SMILES REPR": "CCc1c(-c2cnc3c(N)n[nH]c3c2)[nH]c2ccc(C3CCNCC3)cc12",
    "pIC50": "4.30 to 6.00"
  },
  {
    "SMILES REPR": "CC(C)c1c(-c2ccnc3c2NC(=O)CO3)[nH]c2ccc(C3CCNCC3)cc12",
    "pIC50": "4.30 to 6.00"
  },
  {
    "SMILES REPR": "Cc1c(-c2[nH]c3ccc(C4CCNCC4)cc3c2C(C)C)cn2ccnc2c1C",
    "pIC50": "> 7.00"
  },
  {
    "SMILES REPR": "Cc1cc(-c2[nH]c3ccc(C4CCN(C5CCOCC5)CC4)cc3c2C(C)C)nn2ncnc12",
    "pIC50": "> 7.00"
  }
]

Moving on to the next molecule.
Lookup: Checklist item: pIC50 tested on human TLR7 (Homo sapiens), entry Cc1cc(-c2[nH]c3ccc(C4CCN(CC(=O)N(C)C)CC4)cc3c2C(C)C)cn2c(C#N)cnc12 , value?
Found: 6.00 to 7.00

---

TARGET DESC: human TLR7 (Homo sapiens, UniProt Q9NYK1)
Sequence (Q9NYK1 27-1049): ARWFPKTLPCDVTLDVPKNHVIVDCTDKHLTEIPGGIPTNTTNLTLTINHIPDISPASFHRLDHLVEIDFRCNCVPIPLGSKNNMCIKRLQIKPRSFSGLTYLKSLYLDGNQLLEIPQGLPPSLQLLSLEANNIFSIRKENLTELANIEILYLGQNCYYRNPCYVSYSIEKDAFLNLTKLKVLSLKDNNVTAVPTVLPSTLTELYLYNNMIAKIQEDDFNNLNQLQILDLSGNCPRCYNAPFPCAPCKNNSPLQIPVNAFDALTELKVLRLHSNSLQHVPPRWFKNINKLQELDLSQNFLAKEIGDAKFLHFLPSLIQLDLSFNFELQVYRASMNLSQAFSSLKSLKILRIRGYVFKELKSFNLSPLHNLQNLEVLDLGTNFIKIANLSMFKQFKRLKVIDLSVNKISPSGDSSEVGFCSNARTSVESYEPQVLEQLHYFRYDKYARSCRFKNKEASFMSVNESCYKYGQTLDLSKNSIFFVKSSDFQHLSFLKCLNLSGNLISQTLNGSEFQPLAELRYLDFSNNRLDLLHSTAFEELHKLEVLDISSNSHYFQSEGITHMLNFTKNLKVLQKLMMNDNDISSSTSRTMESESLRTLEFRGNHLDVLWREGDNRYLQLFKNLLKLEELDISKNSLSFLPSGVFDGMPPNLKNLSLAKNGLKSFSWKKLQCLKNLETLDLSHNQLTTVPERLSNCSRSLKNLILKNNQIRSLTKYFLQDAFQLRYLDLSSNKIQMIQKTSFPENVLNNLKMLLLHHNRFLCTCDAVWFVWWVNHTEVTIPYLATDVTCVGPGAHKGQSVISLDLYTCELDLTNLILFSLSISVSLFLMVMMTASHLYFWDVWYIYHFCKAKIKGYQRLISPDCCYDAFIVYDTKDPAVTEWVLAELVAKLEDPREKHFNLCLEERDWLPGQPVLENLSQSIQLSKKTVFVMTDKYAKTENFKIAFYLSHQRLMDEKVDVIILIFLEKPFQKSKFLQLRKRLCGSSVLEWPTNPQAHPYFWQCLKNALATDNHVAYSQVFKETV
METHOD DESCRIPTION: TLR7 inhibition reporter assay (HEK-Blue cells, SEAP reporter, gardiquimod stimulation)
TEST CONDITIONS: HEK-Blue cells overexpressing human TLR7, SEAP reporter, gardiquimod 7.5 μM
Listing of recorded IC50 by entry.

[
  {
    "MOLECULE": "COc1ccc(CN2CCC(c3ccc4[nH]c(-c5ccc6nccn6c5)c(C(C)C)c4c3)CC2)cn1",
    "EXPERIMENTAL READOUT": "IC50",
    "OBSERVED": "< 100 nM"
  },
  {
    "MOLECULE": "Cc1cn2cc(-c3[nH]c4ccc(C5CCN(C(=O)CC(C)O)CC5)cc4c3C(C)C)c(C)cc2n1 (centres unmarked)",
    "EXPERIMENTAL READOUT": "IC50",
    "OBSERVED": "< 100 nM"
  },
  {
    "MOLECULE": "CC(C)c1c(-c2ccc3c(N)noc3c2)[nH]c2ccc(C3CCNCC3)cc12",
    "EXPERIMENTAL READOUT": "IC50",
    "OBSERVED": "100 to 1000 nM"
  },
  {
    "MOLECULE": "Cc1cc(-c2[nH]c3ccc(C4CCN(C(=O)CN(C)C5CC5)CC4)cc3c2C(C)C)cn2nnnc12",
    "EXPERIMENTAL READOUT": "IC50",
    "OBSERVED": "< 100 nM"
  },
  {
    "MOLECULE": "CNC(=O)CN1CCC(c2ccc3[nH]c(-c4ccc(C)n5ncnc45)c(C(C)C)c3c2)CC1",
    "EXPERIMENTAL READOUT": "IC50",
    "OBSERVED": "< 100 nM"
  }
]

Lookup: Give recorded IC50 with human TLR7 (Homo sapiens, UniProt Q9NYK1) for the following molecule: Cc1c(-c2[nH]c3ccc(C4CCN(C5COC5)CC4)cc3c2C(C)C)nn2ncnc2c1C
Found: < 100 nM

Lookup: # returns recorded IC50 (system: human TLR7 (Homo sapiens, UniProt Q9NYK1)) for CCc1c(-c2ccc3oc(=O)[nH]c3c2)[nH]c2ccc(C3CCNCC3)cc12
Found: 100 to 1000 nM

Lookup: Look up IC50 with human TLR7 (Homo sapiens, UniProt Q9NYK1) for this molecule: Cc1cc(-c2[nH]c3ccc(C4CCNCC4)cc3c2C(C)C)cc2c1oc(=O)n2C
Found: < 100 nM
